MEASURED_ON: Amine oxidase [flavin-containing] B (Homo sapiens)
METHOD_DESCRIPTION: Inhibition of MAO-B (unknown origin)
So basically: is IC50 under 300 nM? Then Condition met. Not under? Then Condition not met.

[Q] Is the reported IC50 for O=C(/C=C/c1ccc(OCc2ccccc2)cc1)c1ccc2c(c1)OCO2 strictly below 300 nM?
[A] Condition not met

----------
MEASURED_ON: Amine oxidase [flavin-containing] B (Homo sapiens, UniProt P27338)
Sequence (P27338 whole entry): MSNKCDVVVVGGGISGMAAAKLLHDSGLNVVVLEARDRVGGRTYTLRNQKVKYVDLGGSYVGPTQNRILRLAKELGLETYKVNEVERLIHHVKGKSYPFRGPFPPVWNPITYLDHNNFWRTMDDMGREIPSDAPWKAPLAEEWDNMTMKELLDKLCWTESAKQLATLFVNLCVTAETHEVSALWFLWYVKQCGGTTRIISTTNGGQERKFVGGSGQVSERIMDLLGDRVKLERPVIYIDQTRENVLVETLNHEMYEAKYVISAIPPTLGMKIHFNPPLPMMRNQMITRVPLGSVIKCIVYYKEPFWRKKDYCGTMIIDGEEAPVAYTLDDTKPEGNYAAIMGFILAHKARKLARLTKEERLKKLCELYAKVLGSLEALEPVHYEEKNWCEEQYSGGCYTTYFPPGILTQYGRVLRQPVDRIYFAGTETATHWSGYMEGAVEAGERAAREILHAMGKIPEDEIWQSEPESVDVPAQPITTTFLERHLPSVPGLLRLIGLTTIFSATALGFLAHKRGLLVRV
METHOD_DESCRIPTION: Inhibition of MAO-B (unknown origin)
MEASURE_NAME: IC50

Check out these entries, answers already filled in.
CCO/C(C)=N/Oc1ccc(/C=C/C(=O)c2ccc(C)cc2)cc1 30 nM
COc1ccc(/C=C/C(=N/Oc2ccc(/C=C/C(=O)c3ccc(F)cc3)cc2)c2ccc(OC)cc2)cc1 20 nM
COc1cc(/C=C2\Oc3cc(OCCN4CCCCC4)ccc3C2=O)cc(OC)c1OC 340 nM

Alright, here's another compound for you.
[Q] IC50 lookup needed for O=c1ccoc2ccc(OCCCN3CCCCC3)cc12 , thanks.
[A] 7200 nM
